- Run description: Antioxidant activity against H2O2-induced oxidative stress in chicken RBC assessed as catalase activity by measuring H2O2 utilization per mg protein pre-incubated at 25 uM followed by H2O2 addition by UV spectroscopy (reference value: 15.97 +/- 2.12 nmol of H2O2 utilized/min/mg of protein)
- Format: functional, Gallus gallus, Erythrocyte
# fulfilled = Activity below 30 nmol/min/mg (exclusive); not fulfilled = Activity at/above 30 nmol/min/mg

Use these answered entries as a reference point.
INSERT INTO measurements (compound, assigned_label) VALUES
  ('Cc1ccc2c(c1)CCN1C(=O)c3ccccc3C21O (stereo not given)', 'not fulfilled'),
  ('COc1cc2c(cc1OC)C1(O)C3C4c5ccccc5C(c5ccccc54)C3C(=O)N1CC2 (stereo not given)', 'not fulfilled'),
  ('COc1ccc(OC)c2c1CCN1C(=O)c3ccccc3C21O (stereo not given)', 'fulfilled'),
  ('COc1cc2c(cc1OC)C1(O)c3ccccc3C(=O)N1CC2 (stereo not given)', 'fulfilled'),
  ('COc1ccc2c(c1OC)CCN1C(=O)c3ccccc3C21O (stereo not given)', 'fulfilled');

[Q] Is Activity of COc1cc2c(c(OC)c1)C1CCC(=O)N1CC2 (stereo not given) strictly below 30 nmol/min/mg?
[A] not fulfilled

[Q] Field: below-cutoff. Rule: recorded Activity strictly less than 30 nmol/min/mg. Subject: COc1ccc2c(c1OC)CCN1C(=O)CCCC21 (stereo not given)
[A] fulfilled

[Q] # TODO verify Activity < 30 nmol/min/mg strictly for this compound: COc1ccc2c(c1)CCN1C(=O)c3ccccc3C21O (stereo not given)
[A] fulfilled

[Q] In the record for O=C1c2ccccc2C2(O)c3ccc(Br)cc3CCN12 (stereo not given) , is Activity less than 30 nmol/min/mg?
[A] not fulfilled
